Target: T1, full-length human GIPR with an N-terminal FLAG tag (human, UniProt P48546 22-466)
T1 sequence (looked up): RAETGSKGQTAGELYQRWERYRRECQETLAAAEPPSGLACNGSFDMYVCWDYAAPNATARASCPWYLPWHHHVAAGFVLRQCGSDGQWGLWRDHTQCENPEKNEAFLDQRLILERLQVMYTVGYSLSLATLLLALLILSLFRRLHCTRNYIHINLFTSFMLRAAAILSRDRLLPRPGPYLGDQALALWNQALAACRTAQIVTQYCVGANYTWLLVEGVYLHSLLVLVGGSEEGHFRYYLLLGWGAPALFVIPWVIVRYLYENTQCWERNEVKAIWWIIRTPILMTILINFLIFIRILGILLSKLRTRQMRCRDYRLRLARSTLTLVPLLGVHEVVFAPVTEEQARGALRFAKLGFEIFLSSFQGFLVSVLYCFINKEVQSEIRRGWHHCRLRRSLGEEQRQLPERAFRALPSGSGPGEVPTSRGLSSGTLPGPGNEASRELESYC
Test: cell-based or functional assay
Starred links: 1 amine or outer side, 2 acyl side, 3 side chain; linkers in the order of their positions; H or OH if unused. Non-standard residues stand in square brackets, D forms with d. Groups on a side chain read outwards from the residue. No end group written: not given here. *: point of attachment. C18 diacid = O=C(O)CCCCCCCCCCCCCCCCC(=O)*; C17 diacid = O=C(O)CCCCCCCCCCCCCCCC(=O)*; γGlu = O=C(O)[C@H](CCC(=O)[*:2])N[*:1]; NMeY = CN[C@@H](Cc1ccc(O)cc1)C(=O)O; AEEA = NCCOCCOCC(=O)O; Aib = CC(C)(N)C(=O)O
// values below are reported Human GIPR cAMP EC50, HEK293T
Write the number in pM without appending the unit.

In the examples that follow, each entry is paired with its recorded Human GIPR cAMP EC50, HEK293T.
So, [NMeY][Aib]EGTFISDYSI[Aib]K([AEEA-AEEA-γGlu-γGlu-C17 diacid])DR[Aib]AQ[Aib]NFVNWLLAQRGGGGS-NH2 [Compound No. 32] ? Its Human GIPR cAMP EC50, HEK293T was 0.3

The binder listed as Y[Aib]EGTFISDYSIALDKIAQ[Aib]K([AEEA-AEEA-γGlu-γGlu-C18 diacid])FVEWLLAQRG-OH [Compound No. 153] shows Human GIPR cAMP EC50, HEK293T equal to 0.3

The binder listed as H-Y[Aib]EGTFISDYSIALDKAAQ[Aib]K([AEEA-AEEA-γGlu-γGlu-C17 diacid])FVEWLLAQRG-OH [Compound No. 133] has a reported Human GIPR cAMP EC50, HEK293T of 1.2

Human GIPR cAMP EC50, HEK293T for [NMeY][Aib]EGTFISDYSIALDR[Aib]AQ[Aib]K([2OEGgEgE-C17 diacid])FVNWLLAQR-OH [Compound No. 9] is 0.4

Consider the additional binder presented here.
Looking up [NMeY][Aib]EGTFISDYSIALDRIHQ[Aib]NFVNWLLAQK([AEEA-AEEA-γGlu-C18 diacid])PSSGAPPPS-NH2 [Compound No. 2] , I see its Human GIPR cAMP EC50, HEK293T listed as 0.3
